Kd values for the molecules below.
- assayed system: Retinoic acid receptor RXR-alpha (Homo sapiens, UniProt P19793)
- Sequence (P19793 whole entry, the tested form may be a part): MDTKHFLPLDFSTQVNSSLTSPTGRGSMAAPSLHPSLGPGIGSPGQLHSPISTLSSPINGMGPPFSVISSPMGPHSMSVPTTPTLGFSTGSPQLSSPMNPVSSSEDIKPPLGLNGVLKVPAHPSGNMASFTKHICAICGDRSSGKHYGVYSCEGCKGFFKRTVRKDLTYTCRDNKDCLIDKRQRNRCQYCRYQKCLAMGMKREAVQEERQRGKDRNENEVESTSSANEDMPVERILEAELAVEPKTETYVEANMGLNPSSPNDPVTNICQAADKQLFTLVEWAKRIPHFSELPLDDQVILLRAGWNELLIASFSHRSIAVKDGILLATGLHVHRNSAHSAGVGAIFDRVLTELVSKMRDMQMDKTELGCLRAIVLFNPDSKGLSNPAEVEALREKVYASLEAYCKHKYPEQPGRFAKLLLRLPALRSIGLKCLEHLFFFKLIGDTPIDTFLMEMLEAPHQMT
- test summary: Inhibition of binding to human Retinoic acid receptor RXR DEF domain

Take a look at these entries with their results.
CC1=C(C(C)C)/C(=C/C(C)=C/C=C/C(C)=C/C(=O)O)CCC1	> 200 nM
C\C(C=C1C=CCCC1)=C/C=C/C(C)=C/C(=O)O	> 200 nM

Now look at this one.
stdin: Query: Kd; subject: CC(=C\C=C\C(C)=C\C(=O)O)/C=C1/C=CCCC1
stdout: > 200 nM

---

- assayed system: Cellular retinoic acid-binding protein 1 (Mus musculus, UniProt P62965)
- Sequence (P62965 whole entry): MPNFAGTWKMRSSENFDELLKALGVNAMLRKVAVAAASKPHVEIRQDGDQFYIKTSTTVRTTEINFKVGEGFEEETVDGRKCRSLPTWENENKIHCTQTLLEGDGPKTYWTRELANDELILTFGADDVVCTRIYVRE
- test summary: Inhibition of [3H]ATRA binding to murine Cytoplasmic retinoic acid binding protein (CRABP) type 1
pKd: −log10 of the molar value.
value kind: pKd

stdin: Query: pKd; subject: CC1=C(C(C)C)/C(=C/C(C)=C\C=C\C(C)=C\C(=O)O)CCC1
stdout: < 6.70

stdin: Query: pKd; subject: CC1=C(C)/C(=C/C(C)=C\C=C\C(C)=C\C(=O)O)CCC1
stdout: < 6.70

stdin: Query: pKd; subject: CCC1=C(C(C)C)/C(=C/C(C)=C\C=C\C(C)=C\C(=O)O)CCC1
stdout: < 6.70
